- Study system: Protein translocase subunit SecA (Escherichia coli (strain K12))
- Assay comment: Assay to Identify E. coli SecA ATPase Inhibitors
- Format: functional
- Design: scale not given: direction of the effect not stated beside the values
- Condition details: 30 µM
Entries with a potency or affinity are not part of this list.
Listed next: entries and their corresponding Percent Effect.
Expressed in %, but write only the number.

Consider the reported Percent Effect for these molecules:
In [3]: df
Out[3]:
                                   molecule  result_value
0      c1cnc(NCc2noc3c2CN(CCN2CCCC2)CC3)nc1         -1.82
1    Cc1cc(O)c(OCC(=O)/N=c2\[nH]cc(C)s2)cn1         -5.77
2  CC(=O)N(Cc1noc(C)n1)C1CCN(Cc2ccon2)C1 (centres undefined)         -2.71
3  COc1ccc(CN2CCn3c(CNS(C)(=O)=O)nnc3C2)cc1         -9.41

Fill blank: measured Percent Effect of the molecule `CCc1noc(CNc2ccc(F)cc2OCC2CC2)n1` is ____.
0.992

Name the recorded Percent Effect for `Cc1cnn(CCNCc2ccc(OCc3csc(C)n3)cc2)c1` .
-7.35

---

- Study system: Tyrosyl-tRNA synthetase, putative (Trypanosoma cruzi (strain CL Brener)) (UniProt Q4DSP6)
- Sequence (whole entry): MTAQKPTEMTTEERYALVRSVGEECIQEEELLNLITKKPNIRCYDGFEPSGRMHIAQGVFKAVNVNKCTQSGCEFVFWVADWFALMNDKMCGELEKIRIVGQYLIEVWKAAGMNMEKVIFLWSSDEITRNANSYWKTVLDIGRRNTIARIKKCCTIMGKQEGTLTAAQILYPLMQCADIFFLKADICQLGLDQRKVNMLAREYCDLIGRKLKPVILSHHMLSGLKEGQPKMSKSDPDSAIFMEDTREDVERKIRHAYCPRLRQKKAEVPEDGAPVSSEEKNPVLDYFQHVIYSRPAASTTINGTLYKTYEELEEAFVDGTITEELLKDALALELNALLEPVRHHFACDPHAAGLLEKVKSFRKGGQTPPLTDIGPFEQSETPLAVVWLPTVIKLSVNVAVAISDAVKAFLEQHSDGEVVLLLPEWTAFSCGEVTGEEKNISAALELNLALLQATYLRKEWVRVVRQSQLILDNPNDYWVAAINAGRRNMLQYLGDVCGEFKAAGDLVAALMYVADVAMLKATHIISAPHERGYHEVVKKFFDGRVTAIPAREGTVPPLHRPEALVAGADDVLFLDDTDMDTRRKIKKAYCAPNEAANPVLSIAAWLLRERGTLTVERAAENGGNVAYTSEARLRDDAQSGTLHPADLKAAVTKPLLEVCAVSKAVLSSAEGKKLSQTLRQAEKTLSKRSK
- Assay comment: Trypanosoma cruzi tyrosyl tRNA synthetase (TcYRS) _High Tyrosine SOP; also: in the data most compounds retested in dose-response had high values
- Type: functional
- Set-up: scale not given: direction of the effect not stated beside the values
- Condition details: 30 µM
Measured property: Percent Effect (%)
Report as a plain number; the unit % is understood.

Consider the reported Percent Effect for these molecules:
>>> df
                               molecule  measured_property  result_value
0   CCn1nc(C)c2nc(C(C)C)nc(N3CCCCC3)c21     Percent Effect          3.23
1  N#Cc1ccccc1N1CCCN(C(=O)CCn2cccn2)CC1     Percent Effect          5.42

Look at this molecule and give its reported Percent Effect. `CCn1ccnc1CN1CCN(Cc2ccc(C#N)cc2)CC1`
3.43

Quick one: Percent Effect for Cc1ccc(CC(=O)N2CCCC(c3cc(C)[nH]n3)C2)cn1 (stereo not drawn) ?
3.96
